System: SK-MEL-28 melanoma
assayInfo: NCI tumour cell line growth inhibition, 48 h

[
  {
    "molecule": "CC1(C)CC(=O)c2c(nc3c4c([nH]c(-c5ccc(Br)cc5)c24)CC(C)(C)C3)C1",
    "TGI": "> 100 µM"
  },
  {
    "molecule": "O=NN(CCF)C(=O)NC1CCSCC1",
    "TGI": "> 100 µM"
  },
  {
    "molecule": "CCCn1c(=O)c(N2CCN(c3ccccc3)CC2)nc2sc3ccccc3c21",
    "TGI": "> 100 µM"
  },
  {
    "molecule": "Fc1ccc(/C=N/n2c(-c3ccc(F)c(Cl)c3)n[nH]c2=S)cc1",
    "TGI": "> 100 µM"
  },
  {
    "molecule": "O=C(CN1N=C(c2ccc(F)cc2)CCC1=O)Nc1nc2ccccc2s1",
    "TGI": "> 100 µM"
  },
  {
    "molecule": "C=CCC1(C)CCCN(Cc2ccccc2)C1=O (stereo unspecified)",
    "TGI": "> 10 µM"
  },
  {
    "molecule": "Cc1cc(NS(=O)(=O)c2ccc(NC(=O)c3cccc4c(Nc5ccc(S(N)(=O)=O)cc5)c5ccccc5nc34)cc2)no1",
    "TGI": "> 100 µM"
  },
  {
    "molecule": "O=c1[nH]nc(-c2ccccc2)n1O",
    "TGI": "> 100 µM"
  },
  {
    "molecule": "Cc1cc2c(c(C(N)=O)c1C)-c1cc(Cl)cc(Cl)c1C2=O",
    "TGI": "> 100 µM"
  },
  {
    "molecule": "CN1CCN(P2(=S)Oc3ccc4ccccc4c3-c3c(ccc4ccccc34)O2)CC1",
    "TGI": "> 100 µM"
  },
  {
    "molecule": "O=C1NC2CCCCCC2C12CCCCC2 (stereo unspecified)",
    "TGI": "> 100 µM"
  },
  {
    "molecule": "Cn1c(=O)n2n(c1=O)C(C)(C13CC4CC(CC(C4)C1)C3)C13CC4CC(CC1C4)CC23 (stereo unspecified)",
    "TGI": "> 100 µM"
  },
  {
    "molecule": "COc1ccc2c(-c3ccnc(Nc4cccc(OC(F)(F)F)c4)n3)cnn2n1",
    "TGI": "> 25 µM"
  },
  {
    "molecule": "CN(C)CCc1c2c(nc3ccccc13)C(=O)c1cccnc1C2=O",
    "TGI": "1.76 µM"
  },
  {
    "molecule": "CCOc1ccc(NC(=O)CCc2nnc(SC)o2)cc1",
    "TGI": "> 100 µM"
  },
  {
    "molecule": "COC(=O)c1cc(-c2ccc(OC)c(OC)c2)[nH]c1N/N=C/c1c(Cl)cccc1Cl",
    "TGI": "71.2 µM"
  },
  {
    "molecule": "CC(=O)O[C@@H]1C[C@@]2(C)[C@@H]3CC=C4[C@@H](C[C@H](O)C(=O)C4(C)C)[C@]3(C)C(=O)C[C@]2(C)[C@H]1[C@@](C)(O)C(=O)/C=C/C(C)(C)OC(C)=O",
    "TGI": "29.4 µM"
  },
  {
    "molecule": "COc1ccc(CNc2cc(=O)n(C)c(=O)[nH]2)cc1",
    "TGI": "> 100 µM"
  },
  {
    "molecule": "N/C(=N\\OC(=O)c1ccccc1)C(Cc1ccccc1)C(=O)NOC(=O)c1ccccc1 (stereo unspecified)",
    "TGI": "22.6 µM"
  },
  {
    "molecule": "O=C(Nc1ccccc1OC(=O)c1ccccc1)c1ccccc1",
    "TGI": "> 100 µM"
  },
  {
    "molecule": "O=Nc1c(-c2c(O)[nH]c3ncccc23)[nH]c2ccccc12",
    "TGI": "> 100 µM"
  }
]

###

System: NCI-H23 lung
assayInfo: NCI tumour cell line growth inhibition, 48 h; in the data active = GI50 below about 0.43 µM; inactive = the rest
Outcome codes: Yes = active, No = inactive

[
  {
    "compound": "CC1C=CC(OC(=O)C(C)(O)CCC(O)(C(=O)OC2CC(O)C(C(C)C)CC2(C)O)C(C)C)(C(C)C)CC1 (stereo not given)",
    "assaySystem": "NCI-H23 lung",
    "labelClass": "No"
  },
  {
    "compound": "Fc1ccc(/C=N/n2c(-c3ccc(F)c(Cl)c3)n[nH]c2=S)cc1",
    "assaySystem": "NCI-H23 lung",
    "labelClass": "No"
  },
  {
    "compound": "COc1ccc2c(c1)C(=O)c1c-2c(OCCN(C)C)nc2ccccc12",
    "assaySystem": "NCI-H23 lung",
    "labelClass": "No"
  },
  {
    "compound": "Cc1ccncc1C(N)=O",
    "assaySystem": "NCI-H23 lung",
    "labelClass": "No"
  },
  {
    "compound": "COC(=O)c1cc(-c2ccc(OC)c(OC)c2)[nH]c1N/N=C/c1c(Cl)cccc1Cl",
    "assaySystem": "NCI-H23 lung",
    "labelClass": "No"
  },
  {
    "compound": "N#CCCNc1nonc1-c1nc2ccccc2n1CC(=O)c1ccc(NC(=O)[C@@H](N)CCCCN)cc1",
    "assaySystem": "NCI-H23 lung",
    "labelClass": "Yes"
  },
  {
    "compound": "Oc1c(-c2cc(C(F)(F)F)[nH]n2)cc(Cl)c(OCc2ccc(Cl)cc2)c1-c1ccc(Cl)c(C(F)(F)F)c1",
    "assaySystem": "NCI-H23 lung",
    "labelClass": "Yes"
  },
  {
    "compound": "COc1cc2c(cc1F)C(c1ccccc1Cl)=Nc1c(n[nH]c1C)N2",
    "assaySystem": "NCI-H23 lung",
    "labelClass": "No"
  },
  {
    "compound": "CSc1ccc(C2=NN(C(C)=O)C(c3ccc(-c4ccc(Cl)cc4)o3)C2)cc1 (stereo not given)",
    "assaySystem": "NCI-H23 lung",
    "labelClass": "No"
  },
  {
    "compound": "FC(F)(F)c1cccc(-c2nn3ncccc3c2-c2ccnc(Nc3ccc4c(c3)OCCO4)n2)c1",
    "assaySystem": "NCI-H23 lung",
    "labelClass": "No"
  },
  {
    "compound": "O=C1C(OCCOc2ccccc2)=C(OCCOc2ccccc2)C(=O)c2ccccc21",
    "assaySystem": "NCI-H23 lung",
    "labelClass": "No"
  },
  {
    "compound": "C[n+]1c2ccccc2nc2c(N)cc(N)cc21",
    "assaySystem": "NCI-H23 lung",
    "labelClass": "No"
  },
  {
    "compound": "C=CCc1cc(Nc2c3ccc(Cl)cc3nc3ccc(OC)cc23)cc(CN(CC)CC)c1O",
    "assaySystem": "NCI-H23 lung",
    "labelClass": "No"
  },
  {
    "compound": "COc1ccc(Nc2ccnc(N3CCN(c4ccnc5cc(Cl)ccc45)CC3)n2)cc1",
    "assaySystem": "NCI-H23 lung",
    "labelClass": "No"
  },
  {
    "compound": "O=C(Nc1ccccc1OC(=O)c1ccccc1)c1ccccc1",
    "assaySystem": "NCI-H23 lung",
    "labelClass": "No"
  }
]

###

Test system: K-562 leukemia
assayInfo: NCI tumour cell line growth inhibition, 48 h

[
  {
    "molecule": "COc1ccc2c3c1O[C@H](c1ccc(O)cc1)[C@H]3[N+](C)(C)CC2",
    "TGI": "88.2 µM"
  },
  {
    "molecule": "COc1cc(Oc2nc3ccc(C(F)(F)F)cc3nc2-c2ccccc2)cc(OC)c1OC",
    "TGI": "> 100 µM"
  },
  {
    "molecule": "COc1cc2c(cc1F)C(c1ccccc1Cl)=Nc1c(n[nH]c1C)N2",
    "TGI": "> 50.4 µM"
  },
  {
    "molecule": "CNNC(=NS(=O)(=O)c1cc(C#N)c(NNC)cc1S)NNC",
    "TGI": "> 10 µM"
  },
  {
    "molecule": "C=CCC1(C)CCCN(Cc2ccccc2)C1=O (stereo not drawn)",
    "TGI": "> 10 µM"
  },
  {
    "molecule": "O=C(Nc1ccccc1OC(=O)c1ccccc1)c1ccccc1",
    "TGI": "> 100 µM"
  },
  {
    "molecule": "N[C@H](COCc1ccccc1)c1ccccc1",
    "TGI": "87.2 µM"
  },
  {
    "molecule": "CC(C)(CCC(C)(C)N1OC1c1ccccc1)N1OC1c1ccccc1 (stereo not drawn)",
    "TGI": "37.7 µM"
  }
]

###

Tested on: MDA-MB-435
assayInfo: NCI tumour cell line growth inhibition, 48 h; in the data active = GI50 below about 0.43 µM; inactive = the rest
Outcomes: active, inactive

[
  {
    "compound": "Oc1cccc2c1NCCC2",
    "labelClass": "active"
  },
  {
    "compound": "Cc1[nH]c(-c2cc(N)ccc2Cl)c2c1C(=O)CCCC2",
    "labelClass": "inactive"
  },
  {
    "compound": "COc1cc2cc(Oc3ccc(NC(=O)c4ccc(Cl)c(Cl)c4)cc3)c(C)nc2cc1OC",
    "labelClass": "inactive"
  },
  {
    "compound": "Nc1n[nH]c2ccc([C@@H]3Nc4cc5c(cc4[C@H]4C6CCC(C6)[C@@H]34)C(=O)NC5)cc12 (stereo not given in full)",
    "labelClass": "active"
  },
  {
    "compound": "CN1CCN(CCCCCN=c2cc3c(=O)n(CCCCCN4CCN(C)CC4)c(=O)c4c(NCCCCCN5CCN(C)CC5)cc5c(O)n(CCCCCN6CCN(C)CC6)c(=O)c2c5c4-3)CC1",
    "labelClass": "inactive"
  },
  {
    "compound": "COc1cc(/C=C/c2ccc3c(Br)cc(Br)c(O)c3n2)ccc1O",
    "labelClass": "inactive"
  },
  {
    "compound": "CCC(=O)Nc1ccc(N2C(=O)/C(=C/c3ccc(OC)cc3)N=C2c2ccccc2)cc1",
    "labelClass": "inactive"
  },
  {
    "compound": "CC(C)C[C@H](NC(=O)CCn1ccc2ccccc2c1=O)B(O)O",
    "labelClass": "inactive"
  },
  {
    "compound": "COc1cc2c(cc1F)C(c1ccccc1Cl)=Nc1c(n[nH]c1C)N2",
    "labelClass": "active"
  },
  {
    "compound": "Fc1ccc(/C=N/n2c(-c3ccc(F)c(Cl)c3)n[nH]c2=S)cc1",
    "labelClass": "inactive"
  },
  {
    "compound": "C[C@@H]1Cc2cc(O)ccc2[C@H]2CC[C@]3(C)/C(=C/COCCN(C)C)CC[C@H]3[C@H]12 (tested in a mixture with another compound)",
    "labelClass": "active"
  },
  {
    "compound": "O=c1c2cc(F)ccc2sc2c(NCCCNCCO)nc3ccccc3c12",
    "labelClass": "inactive"
  },
  {
    "compound": "C/C(=N\\O)c1cccc(Nc2cc(-n3ccnc3)c3ccccc3n2)c1",
    "labelClass": "inactive"
  },
  {
    "compound": "COc1cc2ncc3c(nc4sccn43)c2cc1OC",
    "labelClass": "inactive"
  },
  {
    "compound": "Cc1ccc(C2C3Cc4ccccc4C3=NN2c2ccc(S(=O)(=O)/N=c3\\scc(-c4ccccc4)n3-c3ccccc3)cc2)cc1 (stereo not given)",
    "labelClass": "inactive"
  }
]
